# System: CCRF-CEM leukemia
# Assay notes: NCI-60 one-dose screen, 48 h (100 = growth as untreated, 0 = no growth, -100 = all killed)
# Test settings: 10 µM unless noted
This is part of a sample that, as a whole, favours compounds with a hit. Of some 83,000 tested, about 20% had one in any assay.
So I've got a bunch of compounds here, and I need their growth values.
Numbers only, in %.

Below: 3 compounds and their reported growth.
CC(=O)c1c(-c2ccc(OC(F)(F)F)cc2)nc2ccccn12; 109
COc1ccc(Cn2nc(-c3cc(OC)c(OC)c(OC)c3)c3c2CCc2cnoc2-3)cc1OC; 55.6
COc1ccc(Nc2nc(N)nc3c2CCc2occc2-3)cc1; 97.3

Report growth for each item below.
1. Nc1c(C(=O)Nc2ccc(Cl)cc2)cc(-c2nc3ccccc3s2)c(=O)n1NS(=O)(=O)c1ccc(Cl)cc1
2. CC(=O)OC1CCC2(C)C(CCC3C4CC=C(C(C)=O)C4(C)OC(=O)CC32)C1 (stereo not given)
3. C[C@]12CCc3nc(Nc4cccc(O)c4)sc3C1=CC[C@@H]1[C@@H]2CC[C@]2(C)/C(=N\NC(N)=S)CC[C@@H]12

1: 97.6; 2: -27.5; 3: 1.64

I have 7 compounds here; please give me growth for each one.
1. COc1cnccc1-c1nc2ccc3[nH]ncc3c2c2c1CCCC2
2. Cc1cc(Nc2cccc(C(F)(F)F)c2)n2c(nc3ccccc32)c1C#N
3. Clc1ccc(C2CC(c3cccc(Nc4ccncc4)c3)=NN2c2cc(Cl)cc(Cl)c2)cc1 (stereo not given)
4. CC(=O)O[C@]1(C(C)=O)CC[C@H]2[C@@H]3C=C(Cl)C4=CC(=O)CC[C@]4(C)[C@H]3CC[C@@]21C
5. Cc1ccc(-c2csc(/N=C3\C(=O)Nc4ccccc43)n2)cc1
6. Fc1ccc2nc3c(cc2c1)CSc1nnc(-c2ccc[nH]c2=S)n1N3
7. O=C(Nc1ccccc1)Oc1ccccc1-c1ccccc1

16.4
55.8
11.3
95.3
6.64
98.9
95.8

Field: growth. Fill in for each record below.
1. COc1ccccc1-c1c(-c2ccc(Cl)cc2)c2cc3c(cc2[nH]c1=O)OCCO3
2. CCN(CCNc1cc(OC)cc2cccnc12)CCc1ccccc1

[41.7, 73.7]

---

# Test system: T-47D breast
# Assay notes: NCI-60 one-dose screen, 48 h (100 = growth as untreated, 0 = no growth, -100 = all killed)
# Test settings: 10 µM unless noted
About 83,000 compounds went through this panel and 20% of them were active in at least one assay; those are over-represented in the sample as a whole.
Please respond with t when measured growth is strictly beneath 90%, and with f in all other cases.

NS(=O)(=O)c1cccc(NC(=O)C(=O)C2C(=O)Nc3ccccc32)c1 (stereo not drawn); f
COc1cc(C2CC(c3cccc(Nc4ccncc4)c3)=NN2C(C)=O)cc(OC)c1OC (stereo not drawn); t
O=C1/C(=C/c2ccc(O)cc2)COc2ccc(-c3ccccc3)cc21; t
COc1ccc(NS(=O)(=O)c2ccc(C)cc2)c([N+](=O)[O-])c1; f
O=C(Nc1sc2c(c1C(=O)O)CCCC2)c1cccc(C(F)(F)F)c1; t

I wonder whether CC(=O)N1c2ccccc2NC2=C(C(=O)N(Cc3ccccc3)C2(C)C)C1c1ccco1 (stereo not drawn) has growth below 90%. Can you tell?
t

Also COc1ccc(/C=C/c2n[nH]c3ccc(N4CCOC4=O)cc23)cc1 ?
t

Also need Cc1cccc(C)c1-c1cc(Cc2ccc(Cl)cc2)c(=O)[nH]n1 , thanks.
t

// same read-out, input: O=C1CCC(NC(=S)Nc2ccccc2)N1 (stereo not drawn)
f

Ok, now CCCCCCCCOC(=O)c1ccc(O)c(OC)c1
t

Similarly, COc1cccc(CCC(=O)c2cc3c(N)c(C(=O)Nc4ccccc4)sc3nc2C)c1 ?
t
